protocol_conditions: in ethyl acetate, 303.15 K
parameter: solubility (mole fraction)

So what does the record say about solubility (mole fraction) for CC[C@H]1OC(=O)[C@H](C)[C@@H](O[C@H]2C[C@@](C)(OC)[C@@H](O)[C@H](C)O2)[C@H](C)[C@@H](O[C@@H]2O[C@H](C)C[C@H](N(C)C)[C@H]2O)[C@](C)(O)C[C@@H](C)CN(C)[C@H](C)[C@@H](O)[C@]1(C)O.O ? 0.0521

---

protocol_conditions: in isopropanol, 318.15 K
parameter: solubility (mole fraction)
Number, no unit, nothing else.

So what does the record say about solubility (mole fraction) for CC[C@H]1OC(=O)[C@H](C)[C@@H](O[C@H]2C[C@@](C)(OC)[C@@H](O)[C@H](C)O2)[C@H](C)[C@@H](O[C@@H]2O[C@H](C)C[C@H](N(C)C)[C@H]2O)[C@](C)(O)C[C@@H](C)CN(C)[C@H](C)[C@@H](O)[C@]1(C)O.O ? 0.0542

---

protocol_conditions: in n-butanol, 283.15 K
parameter: solubility (mole fraction)
Number, no unit, nothing else.

So what does the record say about solubility (mole fraction) for CC[C@H]1OC(=O)[C@H](C)[C@@H](O[C@H]2C[C@@](C)(OC)[C@@H](O)[C@H](C)O2)[C@H](C)[C@@H](O[C@@H]2O[C@H](C)C[C@H](N(C)C)[C@H]2O)[C@](C)(O)C[C@@H](C)CN(C)[C@H](C)[C@@H](O)[C@]1(C)O.O ? 0.0254

---

protocol_conditions: in isopropanol, 288.15 K
parameter: solubility (mole fraction)
Number, no unit, nothing else.

So what does the record say about solubility (mole fraction) for CC[C@H]1OC(=O)[C@H](C)[C@@H](O[C@H]2C[C@@](C)(OC)[C@@H](O)[C@H](C)O2)[C@H](C)[C@@H](O[C@@H]2O[C@H](C)C[C@H](N(C)C)[C@H]2O)[C@](C)(O)C[C@@H](C)CN(C)[C@H](C)[C@@H](O)[C@]1(C)O.O ? 0.0327

---

protocol_conditions: in ethyl acetate, 293.15 K
parameter: solubility (mole fraction)
Number, no unit, nothing else.

So what does the record say about solubility (mole fraction) for CC[C@H]1OC(=O)[C@H](C)[C@@H](O[C@H]2C[C@@](C)(OC)[C@@H](O)[C@H](C)O2)[C@H](C)[C@@H](O[C@@H]2O[C@H](C)C[C@H](N(C)C)[C@H]2O)[C@](C)(O)C[C@@H](C)CN(C)[C@H](C)[C@@H](O)[C@]1(C)O.O ? 0.0396

---

protocol_conditions: in acetone, 318.15 K
parameter: solubility (mole fraction)
Number, no unit, nothing else.

So what does the record say about solubility (mole fraction) for CC[C@H]1OC(=O)[C@H](C)[C@@H](O[C@H]2C[C@@](C)(OC)[C@@H](O)[C@H](C)O2)[C@H](C)[C@@H](O[C@@H]2O[C@H](C)C[C@H](N(C)C)[C@H]2O)[C@](C)(O)C[C@@H](C)CN(C)[C@H](C)[C@@H](O)[C@]1(C)O.O ? 0.063

---

protocol_conditions: in ethanol, 278.15 K
parameter: solubility (mole fraction)
Number, no unit, nothing else.

So what does the record say about solubility (mole fraction) for CC[C@H]1OC(=O)[C@H](C)[C@@H](O[C@H]2C[C@@](C)(OC)[C@@H](O)[C@H](C)O2)[C@H](C)[C@@H](O[C@@H]2O[C@H](C)C[C@H](N(C)C)[C@H]2O)[C@](C)(O)C[C@@H](C)CN(C)[C@H](C)[C@@H](O)[C@]1(C)O.O ? 0.0299

---

protocol_conditions: in ethanol, 308.15 K
parameter: solubility (mole fraction)
Number, no unit, nothing else.

So what does the record say about solubility (mole fraction) for CC[C@H]1OC(=O)[C@H](C)[C@@H](O[C@H]2C[C@@](C)(OC)[C@@H](O)[C@H](C)O2)[C@H](C)[C@@H](O[C@@H]2O[C@H](C)C[C@H](N(C)C)[C@H]2O)[C@](C)(O)C[C@@H](C)CN(C)[C@H](C)[C@@H](O)[C@]1(C)O.O ? 0.0491

---

protocol_conditions: in ethanol, 303.15 K
parameter: solubility (mole fraction)
Number, no unit, nothing else.

So what does the record say about solubility (mole fraction) for CC[C@H]1OC(=O)[C@H](C)[C@@H](O[C@H]2C[C@@](C)(OC)[C@@H](O)[C@H](C)O2)[C@H](C)[C@@H](O[C@@H]2O[C@H](C)C[C@H](N(C)C)[C@H]2O)[C@](C)(O)C[C@@H](C)CN(C)[C@H](C)[C@@H](O)[C@]1(C)O.O ? 0.0451

---

protocol_conditions: in n-butanol, 278.15 K
parameter: solubility (mole fraction)

So what does the record say about solubility (mole fraction) for CC[C@H]1OC(=O)[C@H](C)[C@@H](O[C@H]2C[C@@](C)(OC)[C@@H](O)[C@H](C)O2)[C@H](C)[C@@H](O[C@@H]2O[C@H](C)C[C@H](N(C)C)[C@H]2O)[C@](C)(O)C[C@@H](C)CN(C)[C@H](C)[C@@H](O)[C@]1(C)O.O ? 0.0249

---

protocol_conditions: in ethanol, 288.15 K
parameter: solubility (mole fraction)
Number, no unit, nothing else.

So what does the record say about solubility (mole fraction) for CC[C@H]1OC(=O)[C@H](C)[C@@H](O[C@H]2C[C@@](C)(OC)[C@@H](O)[C@H](C)O2)[C@H](C)[C@@H](O[C@@H]2O[C@H](C)C[C@H](N(C)C)[C@H]2O)[C@](C)(O)C[C@@H](C)CN(C)[C@H](C)[C@@H](O)[C@]1(C)O.O ? 0.0348

---

protocol_conditions: in isopropanol, 293.15 K
parameter: solubility (mole fraction)
Number, no unit, nothing else.

So what does the record say about solubility (mole fraction) for CC[C@H]1OC(=O)[C@H](C)[C@@H](O[C@H]2C[C@@](C)(OC)[C@@H](O)[C@H](C)O2)[C@H](C)[C@@H](O[C@@H]2O[C@H](C)C[C@H](N(C)C)[C@H]2O)[C@](C)(O)C[C@@H](C)CN(C)[C@H](C)[C@@H](O)[C@]1(C)O.O ? 0.0349

---

protocol_conditions: in acetone, 308.15 K
parameter: solubility (mole fraction)
Number, no unit, nothing else.

So what does the record say about solubility (mole fraction) for CC[C@H]1OC(=O)[C@H](C)[C@@H](O[C@H]2C[C@@](C)(OC)[C@@H](O)[C@H](C)O2)[C@H](C)[C@@H](O[C@@H]2O[C@H](C)C[C@H](N(C)C)[C@H]2O)[C@](C)(O)C[C@@H](C)CN(C)[C@H](C)[C@@H](O)[C@]1(C)O.O ? 0.0512
